Entries annotated with measured pIC50
# TESTED_SYSTEM: ROCK2 (Homo sapiens (Human), UniProt O75116)
# Sequence (O75116 whole entry, species assumed): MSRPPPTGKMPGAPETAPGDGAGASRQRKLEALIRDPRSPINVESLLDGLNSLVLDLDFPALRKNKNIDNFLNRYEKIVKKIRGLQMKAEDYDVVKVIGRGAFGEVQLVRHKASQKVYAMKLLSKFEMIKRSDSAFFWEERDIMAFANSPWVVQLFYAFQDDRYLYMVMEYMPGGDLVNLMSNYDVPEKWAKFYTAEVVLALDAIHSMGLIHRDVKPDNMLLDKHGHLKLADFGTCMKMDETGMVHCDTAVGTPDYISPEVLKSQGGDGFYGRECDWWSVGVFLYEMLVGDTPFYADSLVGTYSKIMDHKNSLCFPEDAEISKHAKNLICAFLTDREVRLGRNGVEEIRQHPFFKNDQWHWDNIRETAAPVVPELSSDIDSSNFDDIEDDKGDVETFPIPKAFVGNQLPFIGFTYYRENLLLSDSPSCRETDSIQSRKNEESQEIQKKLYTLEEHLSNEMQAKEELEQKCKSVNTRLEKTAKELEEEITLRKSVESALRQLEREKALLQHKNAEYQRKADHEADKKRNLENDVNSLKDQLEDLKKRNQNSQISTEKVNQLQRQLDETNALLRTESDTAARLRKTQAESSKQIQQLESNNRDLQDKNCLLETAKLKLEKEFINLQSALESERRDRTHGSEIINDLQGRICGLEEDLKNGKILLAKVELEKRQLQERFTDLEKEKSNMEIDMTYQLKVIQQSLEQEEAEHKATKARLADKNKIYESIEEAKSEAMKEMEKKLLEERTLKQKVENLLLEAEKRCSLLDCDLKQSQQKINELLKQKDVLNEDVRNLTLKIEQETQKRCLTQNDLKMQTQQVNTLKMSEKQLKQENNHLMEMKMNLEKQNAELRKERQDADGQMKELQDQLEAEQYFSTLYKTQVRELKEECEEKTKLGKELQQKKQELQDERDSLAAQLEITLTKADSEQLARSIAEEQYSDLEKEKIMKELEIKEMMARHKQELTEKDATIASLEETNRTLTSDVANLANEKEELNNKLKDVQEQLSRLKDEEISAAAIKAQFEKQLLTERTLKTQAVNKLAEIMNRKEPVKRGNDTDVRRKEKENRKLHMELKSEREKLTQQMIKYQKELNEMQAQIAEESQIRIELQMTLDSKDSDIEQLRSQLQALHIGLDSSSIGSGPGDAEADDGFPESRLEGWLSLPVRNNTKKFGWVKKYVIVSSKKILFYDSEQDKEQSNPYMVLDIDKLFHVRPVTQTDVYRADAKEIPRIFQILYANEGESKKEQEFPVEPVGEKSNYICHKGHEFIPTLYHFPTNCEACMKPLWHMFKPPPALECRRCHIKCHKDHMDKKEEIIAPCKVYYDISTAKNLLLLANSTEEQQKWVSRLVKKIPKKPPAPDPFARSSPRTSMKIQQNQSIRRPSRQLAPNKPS
# PROCEDURE_DETAILS: biochemical
pIC50: −log10 of the molar value.

Previously resolved entries follow.
{"columns": ["COMPOUND", "TESTED_SYSTEM", "EXPERIMENTAL_VALUE"],
 "data": [
  ["CCOc1cccc(NC2CCN(c3ccc(-c4cn[nH]c4)cc3)C2=O)c1 (centres unmarked)", "ROCK2 (Homo sapiens (Human), UniProt O75116)", "> 8.00"],
  ["O=C1C(Nc2cccc(OCC3CC3)c2)CCN1c1ccc(-c2cn[nH]c2)c(F)c1 (single isomer, unassigned) [Example 361]", "ROCK2 (Homo sapiens (Human), UniProt O75116)", "> 8.00"],
  ["O=C1C(Nc2cccc(F)c2)CCN1c1ccc(-c2cn[nH]c2)c(F)c1 (single isomer, unassigned) [Example 47]", "ROCK2 (Homo sapiens (Human), UniProt O75116)", "> 8.00"],
  ["COc1cccc(N[C@@H]2CCN(c3ccc(-c4cn[nH]c4)cc3)C2=O)c1", "ROCK2 (Homo sapiens (Human), UniProt O75116)", "> 8.00"],
  ["COc1cc(F)cc(NC2CCN(c3ccc(-c4cn[nH]c4)c(OC)c3)C2=O)c1 (single isomer, unassigned)", "ROCK2 (Homo sapiens (Human), UniProt O75116)", "> 8.00"],
  ["COc1cccc(NC2CCN(c3ccc(-c4ccnc(N)n4)c(C)n3)C2=O)c1 (single isomer, unassigned)", "ROCK2 (Homo sapiens (Human), UniProt O75116)", "7.00 to 8.00"]
]}

stdin: Identify the measured pIC50 of COc1cccc(CC2CCN(c3ccc(-c4cn[nH]c4)cc3)C2=O)c1 (centres unmarked) for ROCK2 (Homo sapiens (Human), UniProt O75116).
stdout: 5.66 to 7.00

stdin: Write down the reported pIC50 of COc1cc(NC2CCN(c3ccc(-c4cn[nH]c4)c(C#N)c3)C2=O)ccc1F (single isomer, unassigned) , test system: ROCK2 (Homo sapiens (Human), UniProt O75116).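 Also: rho kinase enzyme reaction halted with EDTA, phospho- and non-phospho peptide separated for read-out, kinase activity inhibition derived across a dose-response series, DMSO under 2%.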
stdout: 5.66 to 7.00
